In this section we review reported pKi values for a set of molecules.
# TEST SYSTEM: human A2a receptor (Homo sapiens)
# Construct: purchased Perkin-Elmer RBHA2AM400UA; host or cells: HEK293 cells, used as a membrane preparation
# Sequence (P29274 whole entry): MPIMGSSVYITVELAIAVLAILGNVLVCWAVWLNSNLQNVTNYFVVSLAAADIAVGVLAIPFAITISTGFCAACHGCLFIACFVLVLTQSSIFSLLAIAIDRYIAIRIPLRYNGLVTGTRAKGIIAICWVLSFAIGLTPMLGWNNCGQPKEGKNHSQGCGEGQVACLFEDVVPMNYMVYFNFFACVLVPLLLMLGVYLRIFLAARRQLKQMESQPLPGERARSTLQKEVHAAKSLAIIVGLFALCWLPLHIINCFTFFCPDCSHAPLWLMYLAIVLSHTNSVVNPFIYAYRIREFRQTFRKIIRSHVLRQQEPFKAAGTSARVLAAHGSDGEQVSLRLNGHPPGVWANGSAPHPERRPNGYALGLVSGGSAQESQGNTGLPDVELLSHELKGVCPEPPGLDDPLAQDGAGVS
# EXPERIMENTAL DETAILS: A2a receptor competition binding assay (Scintillation Proximity)
# PARTICULARS: membranes from HEK293 cells expressing human A2a receptor; 0.5 nM tritiated ligand; Cheng-Prusoff; read-out: A2a Ki
In simple prose, pKi is minus the logarithm base ten of a concentration in moles per litre.

Would you please look over these solved cases?
>  <MOLECULE>
Nc1nc2c(F)cccc2c2nc(Cc3cccc(Cc4ccccc4)c3)cn12 [Ex-34]

>  <pKi>
7.68

$$$$
>  <MOLECULE>
Nc1nc2c(F)cccc2c2nc(Cn3cc(-c4ccc(-c5cccnc5)cc4)nn3)cn12 [Ex-98]

>  <pKi>
8.17

$$$$
>  <MOLECULE>
COc1cccc2c1nc(N)n1cc(Cc3ccc(N4CCN(C(C)=O)CC4)cc3)nc21 [Ex-44]

>  <pKi>
7.85

$$$$
>  <MOLECULE>
COc1cccc2c1nc(N)n1cc(C(=O)N3CCC(=O)C(C(C)C)C3)nc21 (centres unmarked) [Ex-199]

>  <pKi>
6.59

$$$$
>  <MOLECULE>
COc1ccc(CN2CCC(Cc3cn4c(N)nc5c(F)cccc5c4n3)CC2)cc1 [Ex-309]

>  <pKi>
6.82

$$$$
>  <MOLECULE>
COc1cccc2c1nc(N)n1cc(C(=O)NCc3cccc4cccnc34)nc21 [Ex-157]

>  <pKi>
8.82

$$$$

Ask: # value lookup — system human A2a receptor (Homo sapiens), readout pKi, item COc1cccc2c1nc(N)n1cc(Cc3ccccc3N3CCOCC3)nc21 [Ex-19]
Reply: 8.35

Ask: Now try COc1cccc2c1nc(N)n1cc(Cc3ccnc(N4CCOCC4)c3)nc21 [Ex-40] .
Reply: 8.00

Ask: Try this molecule too: Nc1nc2cc(F)ccc2c2nc(Cc3ccccc3)cn12 [Ex-07]
Reply: 8.34

Ask: Follow-up entry: Nc1nc2c(F)cccc2c2nc(C(=O)N3CCCC4(CCNC4)C3)cn12 (centres unmarked) [Ex-268]
Reply: 7.18

Ask: And then Nc1nc2c(F)cccc2c2nc(C(=O)N3CCc4cc(CC(=O)Nc5ccccn5)ccc4C3)cn12 [Ex-283] , what is it?
Reply: 7.68

###

Listed below: log10 of Ki values for each entry.
# TEST SYSTEM: human A2a receptor (Homo sapiens)
# Construct: purchased Perkin-Elmer RBHA2AM400UA; host or cells: HEK293 cells, used as a membrane preparation
# EXPERIMENTAL DETAILS: A2a receptor competition binding assay (Scintillation Proximity)
# PARTICULARS: membranes from HEK293 cells expressing human A2a receptor; 0.5 nM tritiated ligand; Cheng-Prusoff; read-out: A2a Ki
Scale: decimal log of Ki, Ki in nM.

Use these answered entries as a reference point.
>  <MOLECULE>
COc1cccc2c1nc(N)n1cc(Cc3c(O)cccc3F)nc21

>  <TEST SYSTEM>
human A2a receptor (Homo sapiens)

>  <VALUE TYPE>
log10 of Ki

>  <ENDPOINT VALUE>
0.32

$$$$
>  <MOLECULE>
COc1cccc2c1nc(N)n1cc(C(=O)N3CCC[C@@H]3C(F)(F)F)nc21

>  <TEST SYSTEM>
human A2a receptor (Homo sapiens)

>  <VALUE TYPE>
log10 of Ki

>  <ENDPOINT VALUE>
0.89

$$$$
>  <MOLECULE>
COc1cccc2c1nc(N)n1cc(C(=O)N3CCC(=O)C3)nc21

>  <TEST SYSTEM>
human A2a receptor (Homo sapiens)

>  <VALUE TYPE>
log10 of Ki

>  <ENDPOINT VALUE>
2.23

$$$$
>  <MOLECULE>
COc1cccc2c1nc(N)n1cc(C(=O)N3CCCC(C)(C)C3)nc21

>  <TEST SYSTEM>
human A2a receptor (Homo sapiens)

>  <VALUE TYPE>
log10 of Ki

>  <ENDPOINT VALUE>
0.65

$$$$
>  <MOLECULE>
COc1cccc2c1nc(N)n1cc(C(=O)N3CCCC4(CCOC4=O)C3)nc21 (stereo not shown)

>  <TEST SYSTEM>
human A2a receptor (Homo sapiens)

>  <VALUE TYPE>
log10 of Ki

>  <ENDPOINT VALUE>
1.00

$$$$
>  <MOLECULE>
COc1cccc2c1nc(N)n1cc(Cc3cccc(-c4ccccc4)c3)nc21

>  <TEST SYSTEM>
human A2a receptor (Homo sapiens)

>  <VALUE TYPE>
log10 of Ki

>  <ENDPOINT VALUE>
1.00

$$$$

Ask: Requested field: log10 of Ki. Item: COc1cccc2c1nc(N)n1cc(C(=O)N3CCCC(C)C3)nc21 (stereo not shown)
Reply: 1.06

Ask: Further, for Nc1nc2c(F)cccc2c2nc(C(=O)NCc3ccccc3N3CCOCC3)cn12 ?
Reply: 0.30

Ask: Do the same for COc1cccc(OCc2cn3c(N)nc4c(F)cccc4c3n2)c1 please
Reply: 1.73

Ask: Param item: CC(C)(C)OC(=O)N1CCC2(CCCN(C(=O)c3cn4c(N)nc5c(F)cccc5c4n3)C2)C1 (stereo not shown)
Reply: 1.18

Ask: Same thing, different molecule: COc1cccc2c1nc(N)n1cc(Cc3cccnc3N3CCC(c4ccccc4)CC3)nc21
Reply: 0.34

Ask: Similarly, Nc1nc2c(F)cccc2c2nc(C(=O)N3CCN4CCCC[C@H]4C3)cn12 ?
Reply: 1.60
